target: histamine H4 receptor (Homo sapiens); construct: expressed in transfected cells; host or cells: CHO cells; assay: H4 binding, method 1 ([3H]-histamine filtration binding on CHO cell membranes); settings: 1.5 h
Please go through the items and note down their inhibition at 20 µM.
Give the value; after it, write the unit.

Worked examples, 9 compounds total:
Nc1nc(NCC2CC2)cc(N2CC(N3CCOCC3)C2)n1 [Example 322] = 57%
CC(C)(C)CCNc1cc(N2CC(N3CCOCC3)C2)ncn1 [Example 312] = 21%
CN[C@@H]1CCN(c2ncnc(NCC(C)(C)C)c2C)C1 [Example 326] = 48%
Nc1nc(NCc2cc(F)ccc2F)cc(N2CC[C@@H](N)C2)n1 [Example 311] = 80%
CN[C@@H]1CCN(c2cc(NCc3ccc(F)cc3F)nc(N)n2)C1 [Example 325] = 43%
CNC1CCCN(c2cc(NCC3CC3)nc(N)n2)C1 (stereo not shown) [Example 294] = 91%
CCNc1cc(N2CCCC(NC)C2)nc(N)n1 (stereo not shown) [Example 324] = 55%
CCCNc1cc(N2CCN[C@H](C)C2)ncn1 [Example 313] = 70%
CCCNc1cc(N2CCCC(NC)C2)nc(N)n1 (stereo not shown) [Example 323] = 85%

Moving on to the next compound.
Lab note: CNc1cc(N2CCCC(NC)C2)nc(N)n1 (stereo not shown) [Example 321] gave inhibition at 20 µM of 15%

---

molecular target: histamine H4 receptor (Homo sapiens); construct: expressed in transfected cells; host or cells: CHO cells; test: H4 binding, method 1 ([3H]-histamine filtration binding on CHO cell membranes); conditions: 1.5 h
measured.endpoint: inhibition at 10 µM

Worked examples, 5 compounds total:
CC(C)(C)CCNc1cc(N[C@H]2CCN(Cc3ccccc3)C2)ncn1 [Example 289] = 44%
CN1CCN(c2cc(NC(C)(C)C)nc(N)n2)CC1 [Example 223] = 13%
CC(C)(C)CNc1cc(N2CCN(C3CNC3)CC2)ncn1 [Example 303] = 38%
c1nc(NC[C@@H]2CCCO2)cc(N[C@H]2CCNC2)n1 [Example 290] = 24%
N[C@@]12C[C@@H]1CN(c1cc(NCC3CC3)ncn1)C2 (relative stereo) [Example 304] = 19%

Hi! Can you tell me inhibition at 10 µM for each of these compounds?
1. CNC1CN(c2cc(N3CCOCC3)nc(N)n2)C1 [Example 268]
2. CC(C)(C)CNc1cc(N2CCN(C3CCCCC3)CC2)ncn1 [Example 260]
3. CC(C)(C)CCNc1cc(N2CCN(CCO)CC2)ncn1 [Example 307]

Ans:
1. 16%
2. 100%
3. 24%

Hi! Can you tell me inhibition at 10 µM for each of these compounds?
1. CC(C)(C)CNc1cc(N2C[C@H]3C[C@@]3(N)C2)ncn1 [Example 297]
2. CCN(CC)C1CCN(c2cc(NCC(C)(C)C)ncn2)C1 (stereo not drawn) [Example 302]
3. CCN(CC)CCN(C)c1cc(NCC2CC2)ncn1 [Example 306]
4. CCNc1cc(N2CC(C)(NC)C2)nc(N)n1 [Example 257]

Ans:
["30%", "20%", "18%", "100%"]

---

target: histamine H4 receptor (Homo sapiens); construct: expressed in transfected cells; host or cells: CHO cells; test: H4 binding, method 1 ([3H]-histamine filtration binding on CHO cell membranes); settings: H4 binding, method 1; Ki calculated from IC50 (Cheng-Prussoff)
Each entry falls into one class according to its Ki; the ranges are lower level (below 10 nM), middle level (10 nM to below 300 nM), upper level (300 nM or more)

Recorded results for 2 compounds are shown here.
Nc1nc(NCc2cccc(F)c2F)cc(N2CC[C@@H](N)C2)n1 = upper level
CC[C@@H](C)Nc1cc(N2CC[C@@H](NC)C2)ncn1 = middle level

Q: Entry "C[C@H]1CN(c2cc(NCC3CC3)nc(N)n2)CCN1" belongs to which category?
Ans: middle level

Q: Entry CNC1CN(c2cc(NCC(C)(C)C)nc(N)n2)C1 [Example 61] belongs to which category?
Ans: lower level

Q: Entry "CN(C)[C@@H]1CCN(c2cc(NCC(C)(C)C)ncn2)C1" belongs to which category?
Ans: middle level

---

target: histamine H4 receptor (Homo sapiens, UniProt Q9H3N8); construct: expressed in transfected cells; host or cells: CHO cells; test: H4 binding, method 1 ([3H]-histamine filtration binding on CHO cell membranes); settings: H4 binding, method 1; Ki calculated from IC50 (Cheng-Prussoff)
Sequence (Q9H3N8 whole entry): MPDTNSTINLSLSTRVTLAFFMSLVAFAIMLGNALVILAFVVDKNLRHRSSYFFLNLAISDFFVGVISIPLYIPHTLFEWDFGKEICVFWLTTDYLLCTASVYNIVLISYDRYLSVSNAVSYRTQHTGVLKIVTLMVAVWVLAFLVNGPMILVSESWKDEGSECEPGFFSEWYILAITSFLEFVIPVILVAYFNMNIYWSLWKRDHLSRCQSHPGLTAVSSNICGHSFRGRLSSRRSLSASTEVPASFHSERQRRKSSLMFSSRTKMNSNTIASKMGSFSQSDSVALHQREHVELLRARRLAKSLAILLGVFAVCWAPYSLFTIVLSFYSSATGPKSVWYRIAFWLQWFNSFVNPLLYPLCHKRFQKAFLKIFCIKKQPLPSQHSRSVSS
Please respond with met when measured Ki is strictly beneath 10 nM, and with not met in all other cases.

Recorded results for 3 compounds are shown here.
CC(C)(C)CCNc1cc(N[C@H]2CCNC2)ncn1 [Example 6] = not met
CN[C@@H]1CCN(c2cc(NCc3ccc(F)c(F)c3)nc(N)n2)C1 [Example 277] = not met
CCNc1cc(N2CCCN(C)CC2)nc(N)n1 [Example 185] = not met

Q: Quick check: Ki of Nc1nc(NCC2CC2)cc(N2CCC(N)CC2)n1 [Example 283] under 10 nM?
Ans: not met

Q: Quick check: Ki of CCCNc1cc(N2CC(N)C2)nc(N)n1 [Example 232] under 10 nM?
Ans: not met

Q: Quick check: Ki of CN1CCN(c2cc(NCCC(C)(C)C)nc(N)n2)CC1 [Example 102] under 10 nM?
Ans: not met

Q: Quick check: Ki of CC(C)Nc1cc(N2CC[C@@H]3NCC[C@@H]3C2)nc(N)n1 (racemic) [Example 137] under 10 nM?
Ans: met

---

Please go through the items and note down their Ki.
biological target: histamine H4 receptor (Homo sapiens, UniProt Q9H3N8); construct: expressed in transfected cells; host or cells: CHO cells; assay: H4 binding, method 2 ([3H]-histamine binding with Ysi WGA beads on CHO cell membranes); conditions: H4 binding, method 2; Ki calculated from IC50 (Cheng-Prussoff); read-out: Method 2 (Ki (nM))

Worked examples, 4 compounds total:
CN[C@H]1CCN(c2cc(NCCC(C)(C)C)ncn2)C1 [Example 17] = 483 nM
CN1CCN(c2cc(NC[C@@H]3CCCO3)ncn2)CC1 [Example 112] = 635 nM
CC(C)CNc1cc(N2C[C@H]3CN(C)C[C@H]3C2)nc(N)n1 [Example 37] = 181 nM
CN[C@@H]1CCN(c2cc(NCC(C)(C)C)nc(N)n2)C1 [Example 11] = 31.6 nM

Moving on to the next compound.
Entry CNC1CN(c2cc(NCc3ccc(C)cc3)nc(N)n2)C1 [Example 88] , tested on histamine H4 receptor (Homo sapiens, UniProt Q9H3N8), has a reported Ki of 35.8 nM

---

target: histamine H4 receptor (Homo sapiens, UniProt Q9H3N8); construct: expressed in transfected cells; host or cells: CHO cells; assay: H4 binding, method 1 ([3H]-histamine filtration binding on CHO cell membranes); details: H4 binding, method 1; Ki calculated from IC50 (Cheng-Prussoff)
measured.endpoint: Ki (nM)
Give bare numbers, in nM.

CCCNc1cc(N2CC(NC)C2)nc(N)n1 = 0.88

Hi! Can you tell me Ki for each of these compounds?
1. Nc1nc(NCC2CC2)cc(N2CC(N)C2)n1
2. CNC1(C)CN(c2cc(NC(C)C)ncn2)C1
3. CN(C)C1CN(c2cc(NCCC(C)(C)C)ncn2)C1
4. CCNc1cc(N2CC(NC)C2)nc(N)n1 [Example 70]
5. CN[C@@H]1CCN(c2cc(NCC(C)(C)C)nc(N)n2)C1

Ans:
9.21
617
374
3.79
10.6

Hi! Can you tell me Ki for each of these compounds?
1. CC(C)(C)CNc1cc(NC2C3CNCC32)nc(N)n1 (stereo not shown)
2. CC(C)(C)CCNc1cc(N2CCCNCC2)ncn1
3. CN1CCN(c2cc(NCCC(C)(C)C)ncn2)CC1
4. CNC1CN(c2cc(N3CCC(C)CC3)nc(N)n2)C1
5. CC(C)Nc1cc(N2CCNCC2)nc(N)n1
6. CC(C)(C)CCNc1cc(N2CCC(N)C2)ncn1 (stereo not shown)

Ans:
[95.2, 1430, 82.3, 10.1, 22.4, 2590]

Hi! Can you tell me Ki for each of these compounds?
1. CCNc1cc(N2CC(N)C2)nc(N)n1
2. CCCNc1cc(N2CCC(C)(N)C2)nc(N)n1 (stereo not shown)

Ans:
8.55
704

---

Please go through the items and note down their Ki.
Target: histamine H4 receptor (Homo sapiens, UniProt Q9H3N8)
Construct: expressed in transfected cells; host or cells: CHO cells
Test: H4 binding, method 1 ([3H]-histamine filtration binding on CHO cell membranes)
Settings: H4 binding, method 1; Ki calculated from IC50 (Cheng-Prussoff)
Method: Cell pellets from CHO cells expressing the histamine H4 receptor were homogenised in ice-cold 50 mM Tris-HCl/0.5 mM CaCl2 buffer containing a protease inhibitor cocktail (Roche®, United Kingdom) using a ground glass homogeniser. Homogenates were centrifuged at 48000 g for 30 min at 4° C. The membrane pellet was resuspended in fresh buffer and the centrifugation step was repeated as described above. The membrane pellet was resuspended in 50 mM Tris-HCl in the same volume as the original cell pellet. […]
One number for each entry, in nM.

Worked examples, 2 compounds total:
c1ccc(CNc2cc(N[C@H]3CCNC3)ncn2)cc1 = 1550
CC(C)CCNc1cc(N[C@H]2CCNC2)ncn1 = 271

Hi! Can you tell me Ki for each of these compounds?
1. CNC1CN(c2cc(NC(C)(C)C)nc(N)n2)C1
2. CNC1CN(c2cc(NCc3cc(F)ccc3F)nc(N)n2)C1

Ans:
6.5
9.69

Hi! Can you tell me Ki for each of these compounds?
1. CC(C)(C)CNc1cc(N2C[C@@H]3CCCN[C@@H]3C2)nc(N)n1
2. C[C@H]1CN(c2cc(NC3CC3)ncn2)CCN1

Ans:
1. 3.99
2. 370
